Biological target: T1, recombinant human Tau monomer, 2N4R isoform (amino acids 2-441) (human, UniProt P10636-8 2-441)
T1 construct: range 2-441; N-terminal His-tag removed with TEV protease; also called monomeric Tau
T1 sequence (P10636 other isoform, or with tags, fused parts or gaps limits assumed): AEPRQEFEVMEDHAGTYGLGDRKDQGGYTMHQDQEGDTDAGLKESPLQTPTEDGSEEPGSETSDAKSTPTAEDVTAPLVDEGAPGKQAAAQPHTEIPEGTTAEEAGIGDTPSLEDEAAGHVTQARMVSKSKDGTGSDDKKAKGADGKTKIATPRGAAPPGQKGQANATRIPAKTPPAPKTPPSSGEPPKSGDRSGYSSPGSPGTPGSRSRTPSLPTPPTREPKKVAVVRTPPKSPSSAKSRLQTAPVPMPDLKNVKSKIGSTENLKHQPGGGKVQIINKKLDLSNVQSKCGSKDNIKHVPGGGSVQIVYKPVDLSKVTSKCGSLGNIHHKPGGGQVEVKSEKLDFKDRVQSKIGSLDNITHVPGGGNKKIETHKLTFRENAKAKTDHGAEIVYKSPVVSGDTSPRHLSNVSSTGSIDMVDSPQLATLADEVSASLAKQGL
Assay: SPR, mIgG2a captured, Tau monomer analyte, 1:1 fit
experimental_endpoint: koff
Put down the number, then write its unit next to it.

Entry 30G1-B2 (antibody, mouse IgG2a, V domains shown) VH: QVQLQQSGAELVRPGASVTLSCKASGYTFTDYEMYWVKQTPVHGLEWIGAIDPETGDTAYNQKFKGKATLTADKSSNTAYMELRSLTSEDSAVYYCIRQYGNWFPYWGQGTLVTVSA VL: DVVMTQTPLSLPVSLGDQASISCRSSQSLVHANGNTYLHWFLQKPGLSPKLLIYKVSNRFSGVPDRFSGGGSGTDFTLKITRLEAEDLGVYFCSQSTHVPFTFGSGTKLEIK ; koff = 0.008 s⁻¹

Entry 11E10-B8 (antibody, mouse IgG2a, V domains shown) VH: EVQLVESGGDLVKPGGSLKLSCAASGFTFRSYGMSWVRQTPDKRLEWVATISGGGSYTYYPDSVKGRFTISRDNAKNTLYLQMSSLKSEDTAMYYCAVSYDGAMDYWGQGTSVTVSS VL: DVLMTQTPLSLPVSLGDQASISCRSSQSIVHSNGNTYLEWYLQKPGQSPKLLIYKVSNRFSGVPDRFSGSGSGTDFTLKISRVEAEDLGLYYCFQGSHVPWTFGGGTKLEIK ; koff = 0.02 s⁻¹

Entry 19H6-F7 (antibody, mouse IgG2a, V domains shown) VH: EVQLVESGGDLVKPGGSLKLSCAASGFTFSSYGMSWVRQTPDKRLEWVATISSGGTYTYYPDSVKGRFTISRDNAKNTLYLQMSSLKSEDTAMYYCAPSYDGAMDYWGQGTSVTVSS VL: DVLMTQTPLSLPVSLGDQASISCRSSQSIVHSNGNTYLEWYLQKPGQSPKLLIYKVSNRFSGVPDRFSGSGSGTDFTLKISRVEAEDLGVYYCFQGSLVPWTFGGGTKLEIK ; koff = 0.002 s⁻¹

Entry 55E7-F11 (antibody, mouse IgG2a, V domains shown) VH: EVKLEESGGGLVQPGGSMKLSCVASGFTFSNYWMNWVRQSPEKGLEWVAQIRLKSDNYATHYAESVKGRFTISRDDSKSSVYLQMNNLRAEDTGIYYCAGYFYGGYFDVWGTGTTVTVSS VL: ELVLTQSPTTMAASPGKKITITCSASSSISSNYLHWYQQKPGFSPKLLIYRTSNLASGVPARFSGSGSGTSYSLTIGTMEAEDVATYYCQQGSSLPFTFGSGTKLEIK ; koff = 0.04 s⁻¹
